# Experimental target: UniProt Q9UGI6
# Protocol notes: Automated whole cell patch-clamp (QPatch 16 HT), inhibition of SK3 current
# Assay setup: HEK-293 cells stably expressing hKCa2.3; symmetrical K+ solutions, free calcium 400 nM; effects normalized to N-methyl bicuculline
pIC50: −log10 of the molar value.

Compound: COC[C@H](NC(=O)CC(Nc1nc2ccccc2[nH]1)c1cccc(C(F)(F)F)c1)c1ccccc1 (single isomer, unassigned) [Example 69a]
pIC50: > 5.00

Compound: COCCNC(=O)CC(Nc1nc2c(C)c(F)ccc2[nH]1)c1cccc(C(F)(F)F)c1 (stereo not shown)
pIC50: 4.00 to 5.00

Compound: O=C(CC(Nc1nc2ccccc2[nH]1)c1cccc(C(F)(F)F)c1)N1CC(O)C1 (stereo not shown)
pIC50: > 5.00

Compound: CCc1cc(C(CC(=O)N(CC)CCO)Nc2nc3ccccc3[nH]2)ccc1F (stereo not shown) [Example 65]
pIC50: > 5.00

Compound: COCC(=O)NCCNC(=O)CC(Nc1nc2ccccc2[nH]1)c1cccc(C(F)(F)F)c1 (stereo not shown)
pIC50: 4.00 to 5.00

Compound: COCC(C)NC(=O)CC(Nc1nc2ccccc2[nH]1)c1cccc(C(F)(F)F)c1 (stereo not shown)
pIC50: > 5.00

Compound: O=C(C(Nc1nc2ccccc2[nH]1)c1cccc(C(F)(F)F)c1)N1CCC1 (stereo not shown) [Example 34]
pIC50: > 5.00

Compound: CCOC(=O)CNC(=O)CC(Nc1nc2ccccc2[nH]1)c1cccc(C(F)(F)F)c1 (stereo not shown)
pIC50: > 5.00

Compound: CCN(CCO)C(=O)CC(Nc1nc2ccccc2[nH]1)c1ccc(Cl)c(C)c1 (single isomer, unassigned; (-)) [Example 40a]
pIC50: > 5.00

Compound: O=C(CC(Nc1nc2ccccc2[nH]1)c1cccc(C(F)(F)F)c1)NCCOC(F)(F)F (stereo not shown) [Example 67]
pIC50: > 5.00

Compound: CN(CCO)C(=O)C(Nc1nc2ccccc2[nH]1)c1cccc(C(F)(F)F)c1 (stereo not shown)
pIC50: > 5.00

Compound: O=C(C(Nc1nc2ccccc2[nH]1)c1cccc(C(F)(F)F)c1)N1CCCCC1 (stereo not shown)
pIC50: > 5.00

Compound: O=C(CC(Nc1nc2ccccc2[nH]1)c1cccc(C(F)(F)F)c1)N1CC[C@@H](O)C1 (stereo partly shown)
pIC50: 4.00 to 5.00

Compound: CCOC(=O)NCc1ccc2[nH]c(NC(CC(=O)N(CC)CCO)c3cccc(C(F)(F)F)c3)nc2c1 (stereo not shown)
pIC50: 4.00 to 5.00

Compound: CCN(CC(N)=O)C(=O)CC(Nc1nc2c(CO)cccc2[nH]1)c1cccc(C(F)(F)F)c1 (stereo not shown)
pIC50: > 5.00

Compound: CCN(CC(=O)OC)C(=O)CC(Nc1nc2ccccc2[nH]1)c1cccc(C(F)(F)F)c1 (stereo not shown)
pIC50: > 5.00

Compound: CCS(=O)(=O)NCCNC(=O)CC(Nc1nc2ccccc2[nH]1)c1cccc(C(F)(F)F)c1 (stereo not shown)
pIC50: 4.00 to 5.00

Compound: Cc1noc(C)c1CCNC(=O)CC(Nc1nc2ccccc2[nH]1)c1cccc(C(F)(F)F)c1 (stereo not shown)
pIC50: > 5.00

Compound: COC(=O)CNC(=O)CC(Nc1nc2ccccc2[nH]1)c1cccc(C(F)(F)F)c1 (stereo not shown) [Example 59]
pIC50: > 5.00

Compound: CCN(CCSC)C(=O)CC(Nc1nc2c(CO)cccc2[nH]1)c1cccc(C(F)(F)F)c1 (stereo not shown)
pIC50: > 5.00

Compound: CCN(CCO)C(=O)CC(Nc1nc2ccccc2[nH]1)c1cccc(C(F)(F)F)c1 (single isomer, unassigned; (-)) [Example 41a]
pIC50: > 5.00

Compound: Cc1cc(CNC(=O)CC(Nc2nc3ccccc3[nH]2)c2cccc(C(F)(F)F)c2)ccn1 (stereo not shown)
pIC50: > 5.00

Compound: COC(=O)CN(C)C(=O)CC(Nc1nc2ccccc2[nH]1)c1cccc(C(F)(F)F)c1 (single isomer, unassigned; (-)) [Example 57a]
pIC50: > 5.00

Compound: CNCCN(C)C(=O)CC(Nc1nc2ccccc2[nH]1)c1cccc(C(F)(F)F)c1 (stereo not shown)
pIC50: 4.00 to 5.00

Compound: O=C(CC(Nc1nc2ccccc2[nH]1)c1cccc(SC(F)(F)F)c1)NCc1nc2ccccc2o1 (stereo not shown)
pIC50: > 5.00

Compound: CC(C)S(=O)(=O)N1CCN(C(=O)C(Nc2nc3ccccc3[nH]2)c2cccc(C(F)(F)F)c2)CC1 (stereo not shown)
pIC50: 4.00 to 5.00

Compound: CCc1cc(C(CC(=O)N(CC)CCO)Nc2nc3ccccc3[nH]2)ccc1F (single isomer, unassigned; (-)) [Example 65a]
pIC50: > 5.00

Compound: N#CCNC(=O)CC(Nc1nc2ccccc2[nH]1)c1cccc(C(F)(F)F)c1 (stereo not shown)
pIC50: > 5.00

Compound: CN1CCN(C(=O)C(Nc2nc3ccccc3[nH]2)c2cccc(C(F)(F)F)c2)CC1 (single isomer, unassigned; (-)) [Example 27a]
pIC50: 4.00 to 5.00

Compound: O=C(CC(Nc1nc2ccccc2[nH]1)c1cccc(C(F)(F)F)c1)NCc1cncnc1 (stereo not shown)
pIC50: > 5.00

Compound: CCNC(=O)OCCNC(=O)CC(Nc1nc2ccccc2[nH]1)c1cccc(C(F)(F)F)c1 (stereo not shown)
pIC50: > 5.00
